Listing of Ki toward Rho-associated protein kinase 1 (Homo sapiens, UniProt Q13464), each taken from a published source.

Here are 5 compounds together with their reported answers.
COMPOUND	QUANTITY NAME	REPORTED MEASUREMENT
CNC(=O)c1cnc2[nH]cc(-c3ncc(F)c(N[C@@H](C)c4ccc(F)cc4)n3)c2c1	Ki	500 to 5000 nM
CC1=C(C(=O)Nc2ccc3cnccc3c2)C(c2ccc(C(F)(F)F)c(F)c2)n2nc(C3CCN(C(=O)CCN4CCCCC4)CC3)cc2N1 (stereo not shown)	Ki	< 50 nM
O=C(Cc1ccccc1)Nc1nnc(-c2c[nH]c3ncccc23)s1	Ki	< 500 nM
C[C@H](Nc1nc(-c2c[nH]c3ncc(Cl)cc23)ncc1F)C(=O)O	Ki	500 to 5000 nM
CC1=C(C(=O)Nc2ccc3cnccc3c2)C(c2cccc(C(F)(F)F)c2)n2nc(CO)cc2N1 (stereo not shown)	Ki	< 50 nM

Asked: Kindly indicate its recorded Ki. Item: Cc1c[nH]c2nccc(Oc3ccc(C[C@H](N)CO)cc3F)c12
Given back: < 5 nM

Asked: Kindly indicate its recorded Ki. Item: Cc1c[nH]c2nccc(Oc3ccc(C[C@H](N)C(=O)N4CCOC(c5ccccc5)C4)cc3F)c12 (mixture of isomers)
Given back: < 3 nM

Asked: Kindly indicate its recorded Ki. Item: Cc1c[nH]c2nccc(Oc3ccc(C[C@H](N)C(=O)N4CCC(O)(Cc5ccccc5)CC4)cc3F)c12
Given back: < 3 nM

Asked: Kindly indicate its recorded Ki. Item: Cc1c[nH]c2nccc(Oc3ccc(C[C@H](N)C(=O)NCc4ccccc4)cc3)c12
Given back: < 3 nM

Asked: Kindly indicate its recorded Ki. Item: CC1=C(C(=O)Nc2ccc3cnccc3c2)C(c2ccc(C(F)(F)F)c(F)c2F)n2nc(CO)cc2N1 (stereo not shown)
Given back: < 50 nM

Asked: Kindly indicate its recorded Ki. Item: O=C(Nc1ccc2cnccc2c1)C1=C(C2CC2)Nc2cc(CO)nn2C1c1ccc(C(F)(F)F)c(F)c1 (stereo not shown)
Given back: < 50 nM

Asked: Kindly indicate its recorded Ki. Item: Cc1c[nH]c2nccc(Oc3ccc(CC(CN)C(=O)N4CCN(Cc5ccccc5)CC4)cc3)c12 (stereo not shown)
Given back: < 3 nM

Asked: Kindly indicate its recorded Ki. Item: Cc1c[nH]c2nccc(Oc3ccc(C[C@H](N)C(=O)N4CCc5ccccc5C4)cc3F)c12
Given back: < 3 nM

* * *

Listing of pKi toward Rho-associated protein kinase 1 (Homo sapiens, UniProt Q13464), each taken from a published source.
pKi: −log10 of the molar value.

Asked: Determine reported pKi for CCOC(=O)c1cc2n(n1)C(c1ccc(Cl)nc1)C(C(=O)Nc1ccc3[nH]ncc3c1)=C(C)N2 (centres unmarked) ; test system: Rho-associated protein kinase 1 (Homo sapiens, UniProt Q13464).
Given back: > 7.30

Asked: Determine reported pKi for Cc1c[nH]c2nccc(Oc3ccc(C[C@H](N)C(=O)N4CCc5ncccc5C4)cc3F)c12 ; test system: Rho-associated protein kinase 1 (Homo sapiens, UniProt Q13464).
Given back: > 8.52

Asked: Determine reported pKi for c1ccc(CNc2ccnc(-c3c[nH]c4nccc(Oc5ccc6c(c5)CNCC6)c34)n2)cc1 ; test system: Rho-associated protein kinase 1 (Homo sapiens, UniProt Q13464).
Given back: < 7.52

Asked: Determine reported pKi for Cc1c[nH]c2nccc(Oc3ccc(CC(N)C(=O)N4CCN(C)CC4CO)cc3F)c12 (centres unmarked) ; test system: Rho-associated protein kinase 1 (Homo sapiens, UniProt Q13464).
Given back: 7.52 to 8.52

Asked: Determine reported pKi for CN(c1ccccc1)c1cccc(-c2c[nH]c3ncc(Cl)cc23)n1 ; test system: Rho-associated protein kinase 1 (Homo sapiens, UniProt Q13464).
Given back: 5.30 to 6.30
